tgt: Ubiquitin-conjugating enzyme E2 D3 (Mus musculus)
methodSummary: Inhibition of UbcH5c in mouse b.End3 cells assessed as decrease in TNF-alpha-mediated IkB-alpha phosphorylation at 10 uM preincubated for 2 hrs followed by TNF-alpha stimulation for 20 mins by Western blot analysis
Format: cell-based
Calls of active or inactive are those of the source. No cut-off for these calls is given here.
propertyMeasured: inhibition

>  <compound>
C=C1C(=O)O[C@H]2c3c(C)c(OCc4ccccc4Br)cc(C)c3CC[C@@H]12

>  <tgt>
Ubiquitin-conjugating enzyme E2 D3 (Mus musculus)

>  <assayResult>
Active

$$$$
>  <compound>
C=C1C(=O)O[C@@H]2C3=C(C)[C@@H](OC(=O)c4ccccc4)CC3[C@](C)(OC(C)=O)CC[C@@H]12 (stereo partly drawn)

>  <tgt>
Ubiquitin-conjugating enzyme E2 D3 (Mus musculus)

>  <assayResult>
Active

$$$$
>  <compound>
C=C1C(=O)O[C@@H]2C[C@]3(C)C(=C[C@H]12)[C@@H](C)CC[C@H]3O

>  <tgt>
Ubiquitin-conjugating enzyme E2 D3 (Mus musculus)

>  <assayResult>
Active

$$$$

* * *

methodSummary: Half life in rat liver microsomes at 5 uM in preincubated for 3 mins followed by NADPH addition measured up to 90 mins
Type: ADME, microsome
propertyMeasured: half-life at 5 µM (h)
Give just the numeric value; h need not be written.

Query :: Fill in half-life at 5 µM for record C=C1C(=O)O[C@H]2c3c(C)c(OCc4ccccc4Br)cc(C)c3CC[C@@H]12
Result :: 2.11

* * *

methodSummary: Tmax in Sprague-Dawley rat at 5 mg/kg, po via gavage by LC-MS/MS analysis
Format: ADME, organism-based
recordedConditions: in vivo
propertyMeasured: Tmax (h)
Give just the numeric value; h need not be written.

Query :: Fill in Tmax for record C=C1C(=O)O[C@H]2c3c(C)c(OCc4ccccc4Br)cc(C)c3CC[C@@H]12
Result :: 3.83

* * *

methodSummary: Half life in rat plasma at 5 uM
Format: ADME, cell-free
propertyMeasured: half-life at 5 µM (h)
Give just the numeric value; h need not be written.

Query :: Fill in half-life at 5 µM for record C=C1C(=O)O[C@H]2c3c(C)c(OCc4ccccc4Br)cc(C)c3CC[C@@H]12
Result :: 1.43

* * *

tgt: UniProtKB P61079
methodSummary: Inhibition of UbcH5c in mouse b.End3 cells assessed as decrease in TNF-alpha-mediated IkB-alpha phosphorylation preincubated for 2 hrs followed by TNF-alpha stimulation for 20 mins by Western blot analysis
Format: cell-based
propertyMeasured: inhibition

>  <compound>
C=C1C(=O)O[C@H]2c3c(C)c(OCc4ccccc4Br)cc(C)c3CC[C@@H]12

>  <inhibition>
Dose-dependent effect

$$$$
>  <compound>
C=C1C(=O)O[C@H]2c3c(C)c(OC(=O)/C=C/c4cccnc4)cc(C)c3CC[C@@H]12

>  <inhibition>
Dose-dependent effect

$$$$
>  <compound>
C=C1C(=O)O[C@@H]2C3=C(C)[C@@H](OC(=O)c4ccccc4)CC3[C@](C)(OC(C)=O)CC[C@@H]12 (stereo partly specified)

>  <inhibition>
Dose-dependent effect

$$$$
>  <compound>
C=C1C(=O)O[C@@H]2C3[C@@H](C)[C@@H](OC(=O)c4ccc(I)cc4)CC[C@]3(C)CC[C@@H]12 (stereo partly specified)

>  <inhibition>
Dose-dependent effect

$$$$
>  <compound>
C=C1C(=O)O[C@@H]2C3[C@@H](C)[C@@H](OC(=O)c4cccc(I)c4)CC[C@]3(C)CC[C@@H]12 (stereo partly specified)

>  <inhibition>
Dose-dependent effect

$$$$

Query :: Fill in inhibition for record C=C1C(=O)O[C@@H]2C3=C(C)[C@@H](OC(=O)c4ccc(Cl)cc4)CC3[C@](C)(OC(C)=O)CC[C@@H]12 (stereo partly specified)
Result :: Dose-dependent effect

* * *

methodSummary: AUC (0 to infinity) in Sprague-Dawley rat at 5 mg/kg, po via gavage by LC-MS/MS analysis
Assay type: ADME, organism-based
Set-up: dose 5 mg/kg, time infinity, route oral
recordedConditions: in vivo
propertyMeasured: AUC(0-inf) (ng·h/mL)
Give just the numeric value; ng·h/mL need not be written.

Query :: Fill in AUC(0-inf) for record C=C1C(=O)O[C@H]2c3c(C)c(OCc4ccccc4Br)cc(C)c3CC[C@@H]12
Result :: 314

* * *

methodSummary: Oral bioavailability in Sprague-Dawley rat at 5 mg/kg via gavage by LC-MS/MS analysis
Assay type: ADME, organism-based
recordedConditions: in vivo
propertyMeasured: bioavailability (%)
Give just the numeric value; % need not be written.

Query :: Fill in bioavailability for record C=C1C(=O)O[C@H]2c3c(C)c(OCc4ccccc4Br)cc(C)c3CC[C@@H]12
Result :: 16.8

* * *

methodSummary: in vitro
recordedConditions: human, HEK-293T cells
Description: Cytotoxicity against human 293T cells assessed as inhibition of cell viability at 5 uM by CCK-8 assay relative to control
# Lookup of reported cytotoxicity at 5 µM keyed by entry

>  <compound>
C=C1C(=O)O[C@@H]2C3[C@@H](C)[C@@H](OC(=O)c4ccc(I)cc4)CC[C@]3(C)CC[C@@H]12 (some centres undefined)

>  <propertyMeasured>
cytotoxicity at 5 µM

>  <assayResult>
< 20%

$$$$

Query :: Fill in cytotoxicity at 5 µM for record C=C1C(=O)O[C@@H]2C3=C(C)[C@@H](OC(=O)c4ccc(C)cc4)CC3[C@](C)(OC(C)=O)CC[C@@H]12 (some centres undefined)
Result :: < 20%

Query :: Fill in cytotoxicity at 5 µM for record C=C1C(=O)O[C@H]2c3c(C)c(OC(=O)c4cccnc4)cc(C)c3CC[C@@H]12
Result :: < 20%

Query :: Fill in cytotoxicity at 5 µM for record C=C1C(=O)O[C@H]2c3c(C)c(OCc4ccc(OC(F)(F)F)cc4)cc(C)c3CC[C@@H]12
Result :: < 20%

Query :: Fill in cytotoxicity at 5 µM for record C=C1C(=O)O[C@H]2c3c(C)c(OCc4ccccc4Br)cc(C)c3CC[C@@H]12
Result :: < 20%

Query :: Fill in cytotoxicity at 5 µM for record C=C1C(=O)O[C@H]2c3c(C)c(OC(=O)/C=C/c4cccnc4)cc(C)c3CC[C@@H]12
Result :: < 20%

* * *

tgt: Ubiquitin-conjugating enzyme E2 D3 (Mus musculus) (UniProt P61079)
Sequence (P61079 whole entry, looked up): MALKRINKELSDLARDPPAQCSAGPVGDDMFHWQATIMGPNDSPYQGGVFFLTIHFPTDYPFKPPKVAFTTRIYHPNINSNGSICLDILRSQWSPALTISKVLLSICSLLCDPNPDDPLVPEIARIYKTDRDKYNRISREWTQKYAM
methodSummary: Inhibition of UbcH5c in mouse b.End3 cells assessed as decrease in TNF-alpha-mediated IkB-alpha phosphorylation at 10 uM preincubated for 2 hrs followed by TNF-alpha stimulation for 20 mins by Western blot analysis
Type: cell-based
The source made the active and inactive calls. The rule behind the calls is not given here.

>  <molecule>
C=C1C(=O)O[C@@H]2C3[C@@H](C)[C@@H](OC(=O)c4cccc(I)c4)CC[C@]3(C)CC[C@@H]12 (some centres undefined)

>  <inhibition>
Active

$$$$
>  <molecule>
C=C1C(=O)O[C@H]2c3c(C)c(OC(=O)/C=C/c4cccnc4)cc(C)c3CC[C@@H]12

>  <inhibition>
Active

$$$$
>  <molecule>
C=C1C(=O)O[C@@H]2C3[C@@H](C)[C@@H](OC(=O)c4ccc(I)cc4)CC[C@]3(C)CC[C@@H]12 (some centres undefined)

>  <inhibition>
Active

$$$$
>  <molecule>
C=C1C(=O)O[C@@H]2C3=C(C)[C@@H](OC(=O)c4ccc(Cl)cc4)CC3[C@](C)(OC(C)=O)CC[C@@H]12 (some centres undefined)

>  <inhibition>
Active

$$$$
